List of pEC50 values.
# measured.target: JAK2 (Homo sapiens, UniProt O60674)
# Construct: All four purified enzymes contain only the catalytic domain; His (N)
# Sequence (O60674 849-1124 limits assumed): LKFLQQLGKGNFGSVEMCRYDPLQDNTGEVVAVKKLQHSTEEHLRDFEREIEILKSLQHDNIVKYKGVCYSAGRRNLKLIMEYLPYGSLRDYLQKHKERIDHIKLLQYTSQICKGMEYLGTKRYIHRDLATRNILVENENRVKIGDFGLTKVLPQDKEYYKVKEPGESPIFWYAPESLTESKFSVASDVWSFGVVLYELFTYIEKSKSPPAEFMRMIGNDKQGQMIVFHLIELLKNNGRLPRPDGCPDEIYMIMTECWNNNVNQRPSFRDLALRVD
# protocol.text: JAK2 kinase assay (HTRF, inhibition of phosphorylation of a synthetic peptide)
# settings: catalytic domain, His-tag; 4 μM ATP (Km); read-out: JAK2 kinase inhibitory activity (EC50)
# Procedure: JAK1, JAK2, JAK3 and TYK2 Kinase Assays: Human baculovirus-expressed JAK1, 2, 3 and TYK2 were purchased from Carna Biosciences, Inc. All four purified enzymes contain only the catalytic domain. […] Inhibition of phosphorylation of a synthetic peptide was measured in an HTRF-based assay using the TK substrate-Biotin from the CisbioHTRFKinEASE TK kit. […] The HTRF signal is read using an Envision plate reader.
pEC50: −log10 of the molar value.

compound	measured.target	pEC50
O=C(c1cncs1)N1CCN(c2ncnc3[nH]ccc23)CC2(CC2)C1	JAK2 (Homo sapiens, UniProt O60674)	6.00 to 7.00
CCCCC(=O)Nc1nc(N2CCN(Cc3ccccc3)CC3(CC3)C2)c2cc[nH]c2n1	JAK2 (Homo sapiens, UniProt O60674)	< 6.00
CNS(=O)(=O)c1cc(C(=O)N2CCN(c3ncnc4[nH]ccc34)CC3(CC3)C2)sc1C	JAK2 (Homo sapiens, UniProt O60674)	> 7.00
O=C1OCCN1CC(=O)N1CCCN(c2ncnc3[nH]ccc23)CC12CC2	JAK2 (Homo sapiens, UniProt O60674)	6.00 to 7.00
Cc1sncc1C(=O)N1CCCN(c2ncnc3[nH]ccc23)CC12CC2	JAK2 (Homo sapiens, UniProt O60674)	> 7.00
NS(=O)(=O)c1ccc(CC(=O)N2CCN(c3ncnc4[nH]ccc34)CC3(CC3)C2)s1	JAK2 (Homo sapiens, UniProt O60674)	> 7.00
N#Cc1c[nH]c(C(=O)N2CCN(c3ncnc4[nH]ccc34)CC3(CC3)C2)c1	JAK2 (Homo sapiens, UniProt O60674)	> 7.00
N#Cc1cccc(CC(=O)N2CCCN(c3ncnc4[nH]ccc34)CC23CC3)c1	JAK2 (Homo sapiens, UniProt O60674)	< 6.00
O=C(c1cnsn1)N1CCCN(c2ncnc3[nH]ccc23)CC12CC2	JAK2 (Homo sapiens, UniProt O60674)	> 7.00
O=C(CC1CCCC1)N1CCCN(c2ncnc3[nH]ccc23)CC12CC2	JAK2 (Homo sapiens, UniProt O60674)	6.00 to 7.00
O=C(c1ccc(S(=O)(=O)NCC2CCCO2)cc1)N1CCN(c2ncnc3[nH]ccc23)CC2(CC2)C1 (centres unmarked)	JAK2 (Homo sapiens, UniProt O60674)	6.00 to 7.00
N#Cc1cccc(C(=O)N2CCN(c3ncnc4[nH]ccc34)CC3(CC3)C2)c1	JAK2 (Homo sapiens, UniProt O60674)	6.00 to 7.00
O=C(Cc1ccc2ccccc2c1)N1CCN(c2ncnc3[nH]ccc23)CC2(CC2)C1	JAK2 (Homo sapiens, UniProt O60674)	> 7.00
Cc1cc(C(=O)N2CCCN(c3ncnc4[nH]ccc34)CC23CC3)n[nH]1	JAK2 (Homo sapiens, UniProt O60674)	6.00 to 7.00
N#CC1(C(=O)N2CCCN(c3ncnc4[nH]ccc34)CC23CC3)CC1	JAK2 (Homo sapiens, UniProt O60674)	> 7.00
CC1CN(c2ncnc3[nH]ccc23)CC2(CC2)CN1C(=O)Nc1ccccc1 (centres unmarked)	JAK2 (Homo sapiens, UniProt O60674)	< 6.00
Cc1[nH]ncc1C(=O)N1CCCN(c2ncnc3[nH]ccc23)CC12CC2	JAK2 (Homo sapiens, UniProt O60674)	6.00 to 7.00
